System: GR complex
MEASUREMENT PROTOCOL: [35S]TBPS binding assay (inhibition of [35S]TBPS binding, cerebral cortex P2 homogenate)
Set-up: species or system rat
APPLIED CONDITIONS: maximum inhibition of [35S]TBPS binding
# reported IMAX; entries follow
Phrase the answer as number then unit, nothing more needed.

Past entries and their recorded results:
INSERT INTO results (compound, reported) VALUES
  ('CC(=O)[C@H]1CC[C@H]2[C@@H]3CCC4=CC(=O)CC[C@]4(C)[C@H]3CC[C@]12C [Progesterone, reference compound]', '100%'),
  ('C[C@]12CC[C@](O)(C#CCCO)C[C@H]1CC[C@@H]1[C@@H]2CC[C@]2(C)[C@@H](C(=O)Cn3cnnn3)CC[C@@H]12', '101%'),
  ('CC(=O)[C@H]1CC[C@H]2[C@@H]3CC[C@H]4C[C@H](O)CC[C@]4(C)[C@H]3CC[C@]12C [3α-Hydroxy-5α-pregnan-20-one, 3α-hydroxy-5α-pregnan-20-one]', '95%'),
  ('CC(=O)[C@H]1CC[C@H]2[C@@H]3CC[C@@H]4C[C@@](O)(C#Cc5cccnc5)CC[C@]4(C)[C@H]3CC[C@]12C', '100%'),
  ('CC(=O)[C@H]1CC[C@H]2[C@@H]3CC[C@@H]4C[C@@](O)(C#CCOc5ccncc5)CC[C@]4(C)[C@H]3CC[C@]12C', '94%');

API: the following record is the query input.
Query: Dear colleague, I am looking for the recorded IMAX of the following compound: "CC(=O)[C@H]1CC[C@H]2[C@@H]3CC[C@@H]4C[C@@](O)(C#CCN(C)C)CC[C@]4(C)[C@H]3CC[C@]12C"
Result: 100%
